# PROCEDURE SUMMARY: soluble on expression in E. coli; label from the status in PepcDB or PDB records

| SEQUENCE INPUT | soluble on expression in E. coli |
| --- | --- |
| MKNNNLSDARKEKGLTQQELAEKLQVRKSTVSNWETGYSSPGISTAIQTAIILDKDVSFLFGNKVQETHTRVRD | not soluble |
| MGHHHHHHSHMAERCFQQAIAFQASCAAVEACFQDLELMHRWLNPLLRCRPEGDWNLDRGSRNRFQIQIPLIYPSLECVVCDRAEGLIVWQFEGFFQGTDTWRWWQEGEHTQLDNCFRFRIAKPWVAWGFDRVAAGVTQRDMQAQLQRLKAIAETLPVASTVTDNLP | not soluble |

====

# PROCEDURE SUMMARY: soluble on expression in E. coli; label from the status in PepcDB or PDB records

| SEQUENCE INPUT | soluble on expression in E. coli |
| --- | --- |
| MTDHSIRSRALGAYLGLACGDALGATVEFLTKGEIAHQYGVHKHIKGGGWLKLPAGQVTDDTEMSIHLGRAILAAPEWDARRAAEEFAVWLKGVPVDVGDTTRRGIRRFIMHGTLSEPESEYHAGNGAAMRNLPVALATLGDDAAFERWTVEQAHITHCNAMSDAATLTLGHMVRRLVLGGDVRDVRDESNKLIAKHRQFKFQPYRGLATAYIVDTMQTVMHYYFQTDSVESCVVETVNQGGDADTTGAIAGMLAGATYGVETIPPRWLRKLDRDVYNEICAQVDGLLARAPALKQG | soluble |
| GMEYQLQQLASLTLVGIKETYENGRQAQQHIAGFWQRCYQEGVIADLQLKNNGDLAGILGLCIPELDGKMSYMIAVTGDNSADIAKYDVITLASSKYMVFEAQGAVPKAVQQKMEEVHHYIHQYQANTVKSAPFFELYQDGDTTSEKYITEIWMPVKG | soluble |

====

# PROCEDURE SUMMARY: soluble on expression in E. coli; label from the status in PepcDB or PDB records

| SEQUENCE INPUT | soluble on expression in E. coli |
| --- | --- |
| MSLTPDPAIDEVTARVYQIPTDAPEADGTLSWSSTTLVLAEVAAGGRRGIGYTYGDGACAQLITGALAGSVTGHSALDVAARWQAMVRAMRNNGRPGLVSCAISAVDTALWDLKGKLLGLPVCRLLGMAHDSVPIYGSGGFTSYDDNATRAQLERWVHEWRIPRVKIKIGESWGSHERRDLDRIALARTVIGPDTELYVDANGGYRRKQAIRMAHAMAGHDVTWFEEPVSSDDLAGLREVRDQVSADVTAGEYGYDLAYFHRMLAADAVDCLQIDVTRCGGITDWLRAAAVAAAHNVDVSGHCAPNLHAHVATAVANLRHLEYFHDHHRIEQMFFDGALSPQGGVLRPDQQRPGFGLEFKQRDADRYRMREGHHHHHH | soluble |
| MNETKVLIEKITEGIQEKKGKNIVIADLTNIDDTICKYFVICQGNSPSQVIAIVDSIKEFTRKGAGTKPSAIDGQRNAEWVAMDFSDVLVHVFLPEARNFYNLEHLWADAKLTTIPDID | soluble |

====

# PROCEDURE SUMMARY: soluble on expression in E. coli; label from the status in PepcDB or PDB records

| SEQUENCE INPUT | soluble on expression in E. coli |
| --- | --- |
| MGHHHHHHSHMVYPEEPFWVLPTVTGFYEDRDYRVNVVEALQEFWQMKQSRGAELKNGALVIYESIPSNSQPYICFVTLPGGSCFGSFQNCPTKAEARRSSAKIALMNSVFNEHPSRRISDEFIQKAVQDARTSFKGTSQINEGTESGIGAFRFMLEANKGRTMLEFQELMTVFQLLHWNGSLKAMRERHCSRQEVVAHYSNRSLDDEMRSQMALDWIAREHDNPGVIRRELVLAERELETFRMAGRELRFPKEKKDILMIAHNQLGGSALNSATIDD | not soluble |
| MLVCNPYEVVIHGTTSSGKIFRPSDWAERLCGILSSFTKDHRLSYSKWVRPILVDNIRCVAVDKKLETDNPQMFRFLMDFAADNDLRVIDCKALLEEREQGGQNNPADEHVMLAQAIEEKHAAEKAQEQTASGASYVLREIGADDTATAFAALSVLRSALTDINRFTEQINKVQRPQGYRLLGIFEEGKHNAVAVCGFREACTLASGRHIHIDDIVTLPQSRRKGYASRLLEEVRKIGAETGVTKIHLNVHVNHDRADAHRLYFKNGFEICAYHFRCDPK | not soluble |

====

# PROCEDURE SUMMARY: soluble on expression in E. coli; label from the status in PepcDB or PDB records
VALUE KIND: soluble on expression in E. coli

Would you please look over these solved cases?
| SEQUENCE INPUT | soluble on expression in E. coli |
| --- | --- |
| AEPQPPSGGLTDEAALSCCSDADPSTKDFLLQETMLRVKDPKKSLDFYTRVLGMTLIQKCDFPIMKFSLYFLAYEDKNDIPKEKDEKIAWALSRKATLELTHNWGTEDDETQSYHNGNSDPRGFGHIGIAVPDVYSACKRFEELGVKFVKKPDDGKMKGLAFIQDPDGYWIQILNPNKMATLM | soluble |
| SMVRLKKSFGQHLLVSEGVLKKIAEELNIEEGNTVVEVGGGTGNLTKVLLQHPLKKLYVIELDREMVENLKSIGDERLEVINEDASKFPFCSLGKELKVVGNLPYNVASLIIENTVYNKDCVPLAVFMVQKEVAEKLQGKKDTGWLSVFVRTFYDVNYVMTVPPRFFVPPPKVQSAVIKLVKNEKFPVKDLKNYKKFLTKIFQNRRKVLRKKIPEELLKEAGINPDARVEQLSLEDFFKLYRLIEDSGE | soluble |
| MGARKASAGASRAATAGVRISHPQRLIDPSIQASKLELAEFHARYADLLLRDLRERPVSLVRGPDGIGGELFFQKHAARLKIPGIVQLDPALDPGHPPLLQIRSAEALVGAVQMGSIEFHTWNASLANLERPDRFVLDLDPDPALPWKRMLEATQLSLTLLDELGLRAFLKTSGGKGMHLLVPLERRHGWDEVKDFAQAISQHLARLMPERFSAVSGPRNRVGKIFVDYLRNSRGASTVAAYSVRAREGLPVSVPVFREELDSLQGANQWNLRSLPQRLDELAGDDPWADYAGTRQRISAAMRRQLGRG | soluble |
| GSSGSSGGYFDAHALAMDYRSLGFRECLAEVARYLSIIEGLDASDPLRVRLVSHLNNYASQREASGPSSG | soluble |
| GMNQRDVILDCEKKLLTAIQNNDVESLEVLLHDDLLFIIPSGETVTKETDIAAYSSGKIALRAVVPSDYIIRIIHDTVVVSVNIEIKGEYMEHTLDNTFRYLRVWKLFDGNWKVIAGSCTAIG | soluble |

// returns reported soluble on expression in E. coli for input "MGSDKIHHHHHHMRDNTHSLEGVARLLLRSEAVASSRIEGIAPNSDKVAMAILARESDSEIRGFKESATAVARNVAILDTINADLAYKDELVLDDIVAMQTALVHAQFETIHPFPDGNGRVGRAMIHALLQRRGLTDAAVLPVSMVLATLGDRYVDGLTKFREGDVLAWISFFVEAAQVATTKAAELADSVAALEAEWMDKVNHHRTAQEASCHAFGHGAHREVRTGDFIDKHGPRCSRFTHRRWHST" not soluble

// returns reported soluble on expression in E. coli for input "MSLSYRIDGLQYANWSEKIFRQLRAGNVDAVHVTIAYHESFRETVLNFEKWNRWFEQYPDLIMKGQWASDIDTARETGRTAIFFGFQNPSPIEDDIGLVEILHTLGARFMQLTYNNQSLLATGCYEAEDAGITRMGRQVIKEMNRVGLVVDMSHSADRSTIEAVEISERPIAITHANPHDWAPALRNKRDDVIRAVTENGGMLGFSVYPHHLKDKSDCTLDSFCEMIARTAERYGVDHLGIGTDLCQDQPDSVVEWMRTGRWSKEIDFGEGSASAPGFPPMPHWFEDNRDFGNIENGLRATGLNKDEVAGIMGGNWYRFFAQNFVPQGEGHHHHHH" soluble

// returns reported soluble on expression in E. coli for input "MLSPEQDLNRHADPFPFNEEPSSQDLDSLRDLVTEAETLQDMVTGGLSIDAILNVLDATGEDETIWPVEKTPPDILHLLSPEYAPETAHNTVLPDLTRKEHRIIGIDSHYRINPAQHGEIYHDKQ" not soluble

// returns reported soluble on expression in E. coli for input "AGNTSYFLRRKIFRKIMHITAPSHDQYGSSTLLVRLTNDVYLMEIMTFDFL" not soluble

// returns reported soluble on expression in E. coli for input "MAHHHHHHMEPYASPAAVPPPHVVYDALSKAQKAAPQLRPIPAFEVYKVAREEELAAYRMLCRVLFMHHGTPLPKAQQRILDDMGEDLCIGQTRQGLEKEMAEQDKVLQGIRKSGVLRRRGDFTDGVEEMTVEDYLAEAPKDDGNGLFMPTSKVRRVDGADSGATRATVIAAAAGLGAKRKGNVHAAVSKLAKEAETAGKSLLYASSAQEEQQLIQVLQQKRELLVALREELTEA" not soluble

// returns reported soluble on expression in E. coli for input "MINSSEGKSDNKIIEKATQILSKYPLCDSCLGRCFARLGYGLENKERGRAIKISLMLILDEKIKNHEIGDLSSIKRIMENLGPIAEKWYKLYFSSEFHSHPCYLCQNKIEDIKEDFSDKAFKLLSGLGVKSYVLGVELDEETKKKESKIIEEFTLMYYESIKHEIKREVGKTLSKRGYPPNMDNPEVEIVYRLSDLQVFIISKNIRTFYVYNRLNRNLPISSWFSKQGNEGLNTLLQRKIVFAFSEPTTVRILADYPIVIENEGRDKIDVGGYYIFKVMTVGKKELQAISAAKPTMRKYRVTVYSTSSLSDAIRVYGNIYDLYIDAKSFSELNEKLSKLKSQYEIIVLSVDLIDVKGRIKDIIENYLKSFLEHHHHHH" not soluble

// returns reported soluble on expression in E. coli for input "MEGVRLGWRGLSREGRGGAWHAAERTRPCTQRVPPSSQKIALQLKATLENVTNLRPVGEDFRWYLKMKCGNCGEISEKWQYIRLMDSVALKGGRGSASMVQKCKLCARENSIDILSSTIKAYNAEDNEKFKTIVEFECRGLEPVDFQPQAGFAADGVESGTVFSDINLQEKDWTDYDEKAQESVGIFEVTHQFVKC" soluble

// returns reported soluble on expression in E. coli for input "MNELREKDESYRSFLLLSAISSEEPLSQREIARQVGIALGLVNSYLKHLVDKGFVRIKSFPRNRYAYLLTPRGLAEKSRLAYEHLSSFTTLFRVARQDYLALFRALKTQGVGRVAFCGVDEVAEIAYLSLREVGLELALVMDQATDGREFFGKPVVSIPHGLLAGNHHIVITTFKRREALREELLQRGVASELLHQAGEPAGETQSIREEHP" not soluble

Cited source: the DeepSol protein solubility set
